The measured values listed here are drawn from PubChem BioAssay (NCI).

- Tested on: DU-145 prostate
- Assay Name: NCI-60 one-dose screen, 48 h
- Condition: 10 µM unless noted
The panel holds about 83,000 compounds, 20% with a hit somewhere; the sample as a whole holds those more often. Activity calls are given as the source filed them. The calls were made as follows: active = growth percent below 10; inactive = the rest.
Assign a class; possible classes are t (active), f (inactive)

Solved cases below.
{"columns": ["Molecule", "System Under Test", "Answer Label"],
 "data": [
  ["C=CCc1ccc(OC(=O)Cc2ccccc2)c(OC)c1", "DU-145 prostate", "f"],
  ["CC(=O)O[C@H]1CCC2C3CCC4=C/C(=N/O)CCC4(C)C3CCC21C (some centres undefined)", "DU-145 prostate", "f"],
  ["CC(=O)C1CCC2C3CC=C4CC(OC(=O)Cc5ccc(N(CCCl)CCCl)cc5)CCC4(C)C3CCC12C (centres undefined)", "DU-145 prostate", "f"]
]}

Let's switch to this molecule now.
query: Assay outcome for CNC(=O)Oc1ccccc1-c1ccccc1 : what was it?
result: f
